# System: MALME-3M melanoma
# TEST_PROTOCOL: NCI-60 one-dose screen, 48 h (100 = growth as untreated, 0 = no growth, -100 = all killed)
# PARTICULARS: 10 µM unless noted
About 83,000 compounds went through this panel and 20% of them were active in at least one assay; those are over-represented in the sample as a whole.
EXPERIMENTAL_ENDPOINT: growth (%)
Express the result in % but write the number alone.

Write down the reported growth of COc1ccc(/C=N/N=C(/c2ccccc2)c2ccc3nc(-c4ccc(Cl)cc4)[nH]c3c2)cc1 , test system: MALME-3M melanoma. 90.6

Write down the reported growth of CC(=O)OC[C@]12CC[C@@H](C(=O)/C=C/c3cccnc3)[C@@H]1[C@H]1CC[C@@H]3[C@@]4(C)CC[C@H](OC(C)=O)C(C)(C)[C@@H]4CC[C@@]3(C)[C@]1(C)CC2 , test system: MALME-3M melanoma. -66.3

====

Recorded growth for the following compounds
# System: SNB-19 CNS
# TEST_PROTOCOL: NCI-60 one-dose screen, 48 h (100 = growth as untreated, 0 = no growth, -100 = all killed)
# PARTICULARS: 10 µM unless noted
About 83,000 compounds went through this panel and 20% of them were active in at least one assay; those are over-represented in the sample as a whole.
Express the result in % but write the number alone.

// worked examples, growth included
* NC1CC2(CCN(c3cnc(C(=O)Nc4cc(F)cc5cccnc45)cn3)CC2)C1 | 83.1
* Oc1ccc(-c2nc3ccc(/C(=N\N=C\c4ccc(Cl)cc4)c4ccccc4)cc3[nH]2)cc1 | 91.7
* COc1ccc(/C=N\NC(=O)c2cnn(CC(O)c3ccccc3)c2N)cc1OCc1ccc(Cl)cc1 (stereo not given) | 68.2

Entry CCOC(=O)c1cccc(NC2=C(Cl)C(=O)C(C)=C(C)C2=O)c1 has what growth? 96.5

Entry CCc1cc(O)ccc1Nc1cc(-c2ccc(-n3cccn3)cc2)[nH]n1 has what growth? 69

Entry Cc1ccc2c(n1)C(=O)C(Cl)=C(Nc1ccccc1C(=O)OC(C)(C)C)C2=O has what growth? 80.4

Entry O=S(=O)(Oc1ccc(-c2cn3ccoc3n2)cc1)C1CCCCC1 has what growth? 97.1

Entry C#Cc1nc(/C=C\CCCCCCC(=O)NO)cs1 has what growth? 71.6

Entry CN1CCN(c2ccc(Nc3nc(NCCCNS(=O)(=O)c4ccccc4)c4sccc4n3)cc2)CC1 has what growth? 56.6

Entry COc1ccc(/C=N/NC(=O)CSc2nc(-c3cnccn3)cc(-c3cccs3)c2C#N)cc1OC has what growth? 78.1

====

# System: UACC-257 melanoma
# TEST_PROTOCOL: NCI-60 one-dose screen, 48 h (100 = growth as untreated, 0 = no growth, -100 = all killed)
# PARTICULARS: 10 µM unless noted
The panel holds about 83,000 compounds, 20% with a hit somewhere; the sample as a whole holds those more often.
EXPERIMENTAL_ENDPOINT: growth (%)
Express the result in % but write the number alone.

// worked examples, growth included
- NS(=O)(=O)c1cccc(Nc2nc(SCC(=O)c3ccc(Cl)cc3)nc3c2CCC3)c1: 104
- O=C(/C=C/c1cccc(F)c1)c1cccc(OCCCCOc2cccc(C(=O)/C=C/c3cccc(F)c3)c2)c1: 105
- O=C1Nc2cc(Cl)ccc2/C1=C\c1ccc(OCc2ccccc2)cc1: 116

Entry CC/C(=C(/c1ccc(Cl)cc1)c1ccc(OCCN)cc1)c1ccccc1 has what growth? 106

Entry COc1ccc(/C(=N\NC(N)=S)c2ccc(Cl)cc2)cc1OC has what growth? 42.9

Entry N#Cc1cnc2ccc(-c3cnc4n[nH]nc4c3)cc2c1N1CCc2cc(F)c(Cl)cc21 has what growth? 23.9

Entry CC1CC(=O)C2=C(C1)Nc1ccc(Br)cc1CC2c1c[nH]c2ccc(Br)cc12 (stereo not given) has what growth? 67.9

Entry CN1CCN(CC#CCn2c3c(c4ccccc42)C[C@]2(C)[C@H]4CC=C5[C@@H]6CC(C)(C)CC[C@]6(C(=O)N6CCOCC6)CC[C@@]5(C)[C@]4(C)CC[C@H]2C3(C)C)CC1 has what growth? 102

Entry CC1=C(SCC(=O)OCCCCCC(C)C)C(=O)c2ccccc2C1=O has what growth? 104

Entry CC(=O)Nc1cc(N2CCOCC2)c2nc(NC(=O)c3[nH]c(C)c(Cl)c3Cl)sc2c1 has what growth? 84.8

====

Recorded growth for the following compounds
# System: CAKI-1 renal
# TEST_PROTOCOL: NCI-60 one-dose screen, 48 h (100 = growth as untreated, 0 = no growth, -100 = all killed)
# PARTICULARS: 10 µM unless noted
The panel holds about 83,000 compounds, 20% with a hit somewhere; the sample as a whole holds those more often.
Express the result in % but write the number alone.

// worked examples, growth included
- CNC(=O)c1cc(N2CCc3cc(NC(=O)Nc4ccc(N5CCN(C)CC5)c(C(F)(F)F)c4)ccc32)ccn1: 79.9
- C#CCOc1cccc(-c2nc(N)nc(Nc3ccccc3SSc3ccccc3Nc3nc(N)nc(-c4cccc(OCC#C)c4)n3)n2)c1: 29.1
- COc1cccc2c1C=CC1(O2)Oc2cccc(OC)c2C=C1C (stereo not drawn): 29.2
- CN(C)c1ccc(/C=N/Nc2nc(N/N=C/c3ccc(N(C)C)cc3)nc(N3CCCCC3)n2)cc1: 89.9
- COc1ccc(/C=N/N=C(/c2ccccc2)c2ccc3nc(-c4ccc(Cl)cc4)[nH]c3c2)cc1: 72.4
- CCOC(=O)c1cccc(NC2=C(Cl)C(=O)C(C)=C(C)C2=O)c1: 89.4
- C=C(C)[C@@H]1CC[C@]2(C(=O)N3CCN(C)CC3)CC[C@]3(C)[C@H](CC[C@@H]4[C@@]5(C)CC[C@H](OP(=O)(OCC)OCC)C(C)(C)[C@@H]5CC[C@]43C)[C@@H]12: 61.2
- Nc1nc(=O)n([C@H]2C[C@H](O)[C@@H](CO)O2)cc1C=O: 82.1
- COc1ccc2[nH]cc(-c3nc(N)nnc3-c3cn(C)c4ccc(Br)cc34)c2c1: 29.1
- O=C(/C=C/C=C/c1csc(Br)n1)NO: 83.9

Entry Cc1ccc2c(n1)C(=O)C(Cl)=C(Nc1cccc(C(F)(F)F)c1)C2=O has what growth? 81.8

Entry CCOC(=O)c1ccccc1NC1=C(Cl)C(=O)c2nc(C)ccc2C1=O has what growth? 98.6

====

Recorded growth for the following compounds
# System: SW-620 colon
# TEST_PROTOCOL: NCI-60 one-dose screen, 48 h (100 = growth as untreated, 0 = no growth, -100 = all killed)
# PARTICULARS: 10 µM unless noted
This is part of a sample that, as a whole, favours compounds with a hit. Of some 83,000 tested, about 20% had one in any assay.
Express the result in % but write the number alone.

- CN1CCN(c2ccc(Nc3nc(NCCCNS(=O)(=O)c4cccc(F)c4)c4sccc4n3)cc2)CC1: 46.5
- O=C(CCCCCCNC(=O)C(O)(O)C(F)(F)F)Nc1ccc(Br)cc1: 3.78
- CC1=C(C)C(=O)C(Nc2ccc3c(c2)OCCO3)=C(Br)C1=O: 107
- O=C(/C=C/c1cccc(C(F)(F)F)c1)Nc1cccc(C(F)(F)F)c1: 33.5
- Cc1ccc(NC(=O)/C=C/c2ccc(OCCCOc3ccc4c(C)cc(=O)oc4c3)cc2)cc1: 83.5

Entry CCc1cccc2c3c(sc12)C(c1ccc(F)cc1)C(C#N)=C(/N=C/c1ccc(Cl)cc1)O3 (configuration not stated) has what growth? 37.6

Entry COc1ccc2c(c1)c(-c1nnc(N)nc1-c1c[nH]c3ccc(F)cc13)cn2C has what growth? 25.7

Entry CCNC(=O)Oc1ccc(/C(=C(/C)c2ccc(OC)cc2)c2ccc(OCCN3CCCCCC3)cc2)cc1 has what growth? -25.9

Entry C#C[C@]1(O)CC[C@H]2[C@@H]3CC=C4c5sc(Nc6ncccc6C)nc5CC[C@]4(C)[C@H]3CC[C@@]21C has what growth? -40.9

Entry CC[C@]12C=CCN3CC[C@@]4(c5ccc(OC)cc5N(C)[C@H]4[C@@](O)(C(=O)OC)[C@@H]1OC(=O)CCN1CCc4ccccc4C1)[C@@H]32 has what growth? 95.6

Entry Cc1ccc(/C=N/Nc2nc(Nc3ccccc3)nc(Nc3ccc(S(N)(=O)=O)cc3)n2)cc1 has what growth? 92.3

Entry O=C(/C=C/c1csc(Br)n1)NO has what growth? 10.2

Entry C/C(CC1(O)C(=O)Nc2ccccc21)=N\O (configuration not stated) has what growth? 94.5

Entry CN(C)c1ccc(-c2cc(-c3c[nH]c4ccccc34)nc(N)c2C#N)cc1 has what growth? 21.4

Entry CCN(CC)CCOc1ccc(C(=C(C)c2ccc(OC)cc2)c2ccc(OCCN(CC)CC)cc2)cc1 has what growth? -35.7

Entry CCCCc1nc2c(N)nc3ccccc3c2n1Cc1ccc(OC)cc1 has what growth? 68.6

Entry Cc1csc(/N=C(N)/N=C(\N)c2cccc(C#N)c2)n1 has what growth? 44.4

Entry O=C(/C=C/c1cccc(F)c1)c1cccc(OCCCOc2cccc(C(=O)/C=C/c3cccc(F)c3)c2)c1 has what growth? 14.3

Entry CC1(C)CC[C@]23CC[C@]4(C)[C@H](CC[C@@H]5[C@@]6(C)CC[C@H](N)C(C)(C)[C@@H]6CC[C@]54C)[C@H]2[C@H]1OC3 has what growth? -44.3

Entry O=C(CSc1nc2ccccc2c(=O)n1-c1ccc(Cl)c(Cl)c1)Nc1ccc(S(=O)(=O)Nc2ccc(Cl)nn2)cc1 has what growth? 89.7
